Data origin: paper PMC9482650

# target under test: NOS1, P29475
# Sequence (P29475 9-101): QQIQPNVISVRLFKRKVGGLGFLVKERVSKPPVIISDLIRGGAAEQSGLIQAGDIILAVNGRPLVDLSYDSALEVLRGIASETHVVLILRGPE
# assay: holdup assay
# Parameters: key: below the threshold = too weak to quantify, mostly under pKd 3.1 to 4
# condition info: plain residues with an end cap or a label only (N-terminal biotin on a linker: ahx)
metric: pKd

Past entries and their recorded results:
{"columns": ["binder", "pKd"],
 "data": [
  ["PKMKLNETSF [SHKBP1, Q8TBC3]", "below the threshold"],
  ["SKKNELFSNL [NHERF1, O14745]", "below the threshold"],
  ["KDECVIATEV [DLL1, O00548]", 3.55],
  ["HSATSVHTSV [MTMR1, Q13613]", 3.55],
  ["ADENEQVSAV [RAPGEF6, Q8TEU7]", 3.61]
]}

Reported pKd for KEYDDELTFF [USH1C, Q9Y6N9] : what is it? below the threshold

Now consider SAPATLSSRA [PDLIM2, Q96JY6] . below the threshold

Another binder to look at: VNENQKEYFF [CNTNAP4, Q9C0A0] 3.83

How about AKPQPVDSWV [ARVCF, O00192] ? 3.85

Now the binder YNSFLSVTTV [PDZRN3, Q9UPQ7] below the threshold
